Test: Rat hepatocyte half-life
Format: in vitro ADME
Details: hepatocytes; rat (R); read-out: Hepatocyte T1/2
Parameter: half-life (min)

> print(dat)
                                   molecule  parameter  reported.value
1  FCCn1cc(-c2ccncc2)c(-c2ccc(OCc3ccc4ncccc4n3)cc2)n1  half-life              12
2  Cn1cc(-c2ccncc2)c(-c2ccc(OCc3ccc4ccccc4n3)cc2)n1 [MP-10, reference compound]  half-life              13
